Target Under Test: hERG channel (Homo sapiens (Human))
Sequence (Q12809 whole entry): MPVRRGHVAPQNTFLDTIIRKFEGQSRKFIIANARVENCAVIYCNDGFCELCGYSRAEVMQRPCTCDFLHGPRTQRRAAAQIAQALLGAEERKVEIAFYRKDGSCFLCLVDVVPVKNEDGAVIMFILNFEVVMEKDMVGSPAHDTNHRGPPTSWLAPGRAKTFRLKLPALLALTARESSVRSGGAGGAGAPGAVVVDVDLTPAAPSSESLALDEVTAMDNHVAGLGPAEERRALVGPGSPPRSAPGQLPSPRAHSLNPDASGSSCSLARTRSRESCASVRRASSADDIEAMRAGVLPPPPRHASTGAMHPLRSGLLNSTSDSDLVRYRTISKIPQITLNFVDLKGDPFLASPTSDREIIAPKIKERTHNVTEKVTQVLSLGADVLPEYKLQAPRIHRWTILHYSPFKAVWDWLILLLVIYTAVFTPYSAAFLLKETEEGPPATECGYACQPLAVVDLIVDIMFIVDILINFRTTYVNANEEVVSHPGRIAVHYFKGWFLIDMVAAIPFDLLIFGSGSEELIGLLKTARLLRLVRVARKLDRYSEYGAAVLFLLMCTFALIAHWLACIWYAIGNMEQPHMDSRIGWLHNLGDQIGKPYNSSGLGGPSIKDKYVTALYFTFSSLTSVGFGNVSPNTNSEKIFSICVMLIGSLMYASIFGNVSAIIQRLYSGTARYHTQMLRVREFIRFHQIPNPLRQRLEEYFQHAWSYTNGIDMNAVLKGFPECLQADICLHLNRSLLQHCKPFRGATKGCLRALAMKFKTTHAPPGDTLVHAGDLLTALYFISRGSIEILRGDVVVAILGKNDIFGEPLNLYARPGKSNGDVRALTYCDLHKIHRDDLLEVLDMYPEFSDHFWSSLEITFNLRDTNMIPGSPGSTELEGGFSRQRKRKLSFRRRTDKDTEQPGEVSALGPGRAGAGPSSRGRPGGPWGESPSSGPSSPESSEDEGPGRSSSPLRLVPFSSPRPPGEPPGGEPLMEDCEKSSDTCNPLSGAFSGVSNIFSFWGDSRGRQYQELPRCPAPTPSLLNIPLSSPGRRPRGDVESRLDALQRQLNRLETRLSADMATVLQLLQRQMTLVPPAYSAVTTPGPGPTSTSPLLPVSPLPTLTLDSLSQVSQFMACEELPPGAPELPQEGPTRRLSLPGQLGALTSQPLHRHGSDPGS
Experiment Description: Test 6-1: inhibitory activity for hERG channel (auto patch clamp, Qpatch)
Type: cell-based
Condition Label: ratio of hERG IC50 to 5-HT2A Ki
Please enter Satisfied where hERG inhibition IC50 (nmol/L)/5-HT2A Ki (nmol/L) is greater than or equal to 700, and Not satisfied where it is lower.

Molecule	Group Label
O=C1c2ncoc2CCN1CCN1CCC(c2noc3ccccc23)CC1	Not satisfied

Input line: Form field: hERG inhibition IC50 (nmol/L)/5-HT2A Ki (nmol/L) at least 700? Entry: Cn1ncc2c1C(=O)N(CCN1CCC(c3noc4ccccc34)CC1)CC2
Output line: Not satisfied

Input line: Form field: hERG inhibition IC50 (nmol/L)/5-HT2A Ki (nmol/L) at least 700? Entry: Cc1nc2c(o1)C(=O)N(CCN1CCC(c3noc4ccccc34)CC1)CC2
Output line: Not satisfied

Cited source: patent US10745401B2
